Examples of molecules with documented IC50 follow.
Tested on: HaCAT
Assay type: cell-based
study conditions: HaCAT (human keratinocyte, non-cancer), 72 h
Give the number; µM is assumed, so skip it.

INSERT INTO assay_data (molecule, readout_name, measurement_units, quantitative_readout) VALUES
  ('COc1cc([O-])c(C(C)=O)c(OC)c1.F[P-](F)(F)(F)(F)F.[Ru+2].c1cnc2c(c1)ccc1cccnc12.c1cnc2c(c1)ccc1cccnc12 [RCX, cis-[Ru(phen)2(xant)](PF6)]', 'IC50', 'µM', 6.1);

Shifting focus to the molecule that follows.
Task: I would be grateful if you could share the reported IC50 for COc1cccc2c1C(=O)c1c(O)c3c(c(O)c1C2=O)C[C@@](O)(C(=O)CO)C[C@@H]3O[C@H]1C[C@H](N)[C@H](O)[C@H](C)O1 [DOX, doxorubicin] .
Output: 0.1

---

Test system: WT SV40 MEF
Type: cell-based, mouse
study conditions: 72 h
readout name: IC50
A complete answer gives the number and then names the unit.

Task: For the compound COc1cc([O-])c(C(C)=O)c(OC)c1.F[P-](F)(F)(F)(F)F.[Ru+2].c1cnc2c(c1)ccc1cccnc12.c1cnc2c(c1)ccc1cccnc12 [RCX, cis-[Ru(phen)2(xant)](PF6)] , what IC50 is on record?
Output: 3.9 µM

---

Tested on: BAD KO SV40 MEF
Assay type: cell-based, mouse
study conditions: Mus musculus, 72 h
This listing pairs molecules with measured pIC50.
Conceptually, pIC50 converts a concentration in mol/L into minus its log10.

INSERT INTO assay_data (molecule, quantitative_readout) VALUES
  ('O=c1[nH]cc(F)c(=O)[nH]1 [5-FU, 5-fluorouracil]', 5.14);

# ---- query molecule ----
Task: Query pIC50 on BAD KO SV40 MEF for COc1cccc2c1C(=O)c1c(O)c3c(c(O)c1C2=O)C[C@@](O)(C(=O)CO)C[C@@H]3O[C@H]1C[C@H](N)[C@H](O)[C@H](C)O1 [DOX, doxorubicin]
Output: 6.39

---

Tested on: HCT116
Format: cell-based, human
study conditions: HCT116 (human colon carcinoma), 72 h
readout name: IC50 (nM)
Please respond with the number in nM and leave the unit unwritten.

INSERT INTO assay_data (compound, target_or_system, readout_name, quantitative_readout) VALUES
  ('O=C1[O][Pt]2([NH][C@@H]3CCCC[C@H]3[NH]2)[O]C1=O', 'HCT116', 'IC50', 4100);

Task: Item under review: COc1cc([O-])c(C(C)=O)c(OC)c1.F[P-](F)(F)(F)(F)F.[Ru+2].c1cnc2c(c1)ccc1cccnc12.c1cnc2c(c1)ccc1cccnc12 [RCX, cis-[Ru(phen)2(xant)](PF6)] . Reported IC50?
Output: 1600

---

Tested on: multicellular spheroids formed from HepG2 cells
procedure text: 3D multicellular spheroid culture, alamar blue
Type: cell-based, human
study conditions: Homo sapiens; HepG2 3D spheroids, 72 h
readout name: pIC50
Scale: negative log10 of molar concentration, which is what pIC50 denotes.

Task: What value of measured pIC50 is listed for COc1cccc2c1C(=O)c1c(O)c3c(c(O)c1C2=O)C[C@@](O)(C(=O)CO)C[C@@H]3O[C@H]1C[C@H](N)[C@H](O)[C@H](C)O1 [DOX, doxorubicin] ?
Output: 4.74

---

Let's look at some compounds and their measured IC50.
Test system: MRC-5
Type: cell-based
study conditions: MRC-5 (human lung fibroblast, non-cancer), 72 h

Task: GET /values?readout=IC50&item= COc1cc([O-])c(C(C)=O)c(OC)c1.F[P-](F)(F)(F)(F)F.[Ru+2].c1cnc2c(c1)ccc1cccnc12.c1cnc2c(c1)ccc1cccnc12 [RCX, cis-[Ru(phen)2(xant)](PF6)]
Output: 21.3 µM

Task: Also O=C1[O][Pt]2([NH][C@@H]3CCCC[C@H]3[NH]2)[O]C1=O ?
Output: 9.5 µM

---

System: MRC-5
Format: cell-based
study conditions: MRC5; MRC-5 (human lung fibroblast, non-cancer), 72 h
readout name: IC50 (nM)
Answer with a number only, understood to be in nM.

Task: Which IC50 value belongs to COc1cccc2c1C(=O)c1c(O)c3c(c(O)c1C2=O)C[C@@](O)(C(=O)CO)C[C@@H]3O[C@H]1C[C@H](N)[C@H](O)[C@H](C)O1 ?
Output: 1300

---

Test system: B16-F10
Type: cell-based, mouse
study conditions: Mus musculus; B16-F10 (murine melanoma), 72 h
readout name: pIC50
Just so you know, pIC50 here is -log10 of the concentration in molar units; reply with that number alone.

Task: Fill in the blank: the reported pIC50 of COc1cccc2c1C(=O)c1c(O)c3c(c(O)c1C2=O)C[C@@](O)(C(=O)CO)C[C@@H]3O[C@H]1C[C@H](N)[C@H](O)[C@H](C)O1 [DOX, doxorubicin] is ____.
Output: 6.22

Each recorded value in this set is attributed to paper PMC5833756.
